src = the RNAGym collection of RNA variant scans (doi:10.1073/pnas.2313332121)

Give polymerase ribozyme fitness (log ratio) for every item shown.
B1: TPR t1 (parent)
chain: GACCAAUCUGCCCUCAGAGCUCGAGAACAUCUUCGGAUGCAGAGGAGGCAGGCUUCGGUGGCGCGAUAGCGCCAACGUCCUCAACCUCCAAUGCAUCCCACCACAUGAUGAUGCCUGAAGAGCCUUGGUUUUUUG

Variants of: B1
experiment.summary: polymerase ribozyme fitness, log enrichment relative to wild type (log ratio); higher = more active; in vitro selection for triplet polymerase activity
Numbers only.

Worked examples follow.
>>> quantitative_result("GACCAAUCUGCCCUCAGAGCUCGAGAACAUCUUCGGAUGCAGAGGAGGCAGGCUUCGGUGGCGCGAUAGCGCCAACGUCCUCAACCUCCAAUGCAUCCCACCACAUGAUGAUGCCAGAAGAGCCUUGGUUUUUUG [U116A]")
-2.96
>>> quantitative_result("GACCAAUCUGCCCUCAGAGCUCGAGAACAUCUUCGGAUGCAGAGGAGGCAGGCUUCGGUGGCGCGAUAGGGCCAACGUCCUCAAUCUCCUAUGCAUCCCACCAAAUGAUGAUGCAUGAAGAGCCUUGGUUUUUUG [C70G C85U A90U C104A C115A]")
-6.79
>>> quantitative_result("GACCAAUCUGCCCUCAGAGCUCGAGAACAUCUUCGGAUGCAGAGGAGGCAGGCUUCGGUGGCGCGAUAGCGCCAACGUCCUCAACCUCCAAUGCAUCCCAACACAUGAUGAUGCCUGAAGAGCCUUGGUUUUUUG [C101A]")
-1.14

List reported polymerase ribozyme fitness (log ratio) for each of these variants:
1. GACCAAUCUGACCUCAGAGCUCGAGAACAUCUUCGGCUGCAGAGGAGGCUGGCUUCGGUGGCGCGAUAGCGCCAACGUCCUCAACCUCCAAUGCAUCCCACCACAUGAUGAUGCCUGAAGAGCCUUGGUUUUUUG [C11A A37C A50U]
2. GACCAAUCUGCCCUCAGAGCUUGAGAACAUCUUCGGAUGCAGAGGAGGCAGGCUUCGGUGGCGCGAUAGCGACAACGUCCUCAACCUCCAAUGCAUCCCACCACAUGAUGAUGCCUGAAGAGCCUUGGUUUUUUG [C22U C72A]
3. GACCAAUCUGCCCUCAGAGCUCGAGAACUUCUUCGGAUGCAGAGGAGGCAGGCUUCGGUGGCGCGAUAGCGCCAACGUCCUCAACCUCCAAUGCAUCCCACCACAUGAUGCUGCGUGAAGAGCCGUGGUUUUAUG [A29U A111C C115G U125G U133A]

stdout:
1: -2.75; 2: -3.91; 3: -4.49
